Target: T1, hIL-18BP-hFc (human, UniProt O95998 31-194, limits assumed)
T1 sequence (looked up): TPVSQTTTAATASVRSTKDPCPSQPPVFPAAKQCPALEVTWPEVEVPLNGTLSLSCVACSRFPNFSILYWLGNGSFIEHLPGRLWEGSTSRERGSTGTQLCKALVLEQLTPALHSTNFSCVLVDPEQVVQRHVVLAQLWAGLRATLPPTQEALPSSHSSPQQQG
Test: cell-based or functional assay
For each of the binders below, state its EC50 Fold Change (+BP/-BP), hIL-18 reporter assay.
Numbers only; they are read as fold.

Problem: For the binder shown here, IL-18 variant polypeptide M34 (ligand) YFPKLRSKLSVIRNLNDQVLFIDQGNRPLFEDMTDSDCRDNAPRTIFIISMYKHSRNRGMAVTISVKCEKISTLSCENKIISFKEMNPPDVIKDTKSDIIFFQESVPGHDNKMQFESSSYEGYFLACEKERDLFKLILKKEDELGDRSIMFTVQNED , give the reported EC50 Fold Change (+BP/-BP), hIL-18 reporter assay.
Result: 1.27

Problem: For the binder shown here, IL-18 variant polypeptide LM1 (ligand) YFPKLKSKLSVIRNLNDQVLFIDQGNRPLFEDMTDSDCRDNAPRTIFIISMYKGSGARGMAVTISVKCEKISTLSCENKIISFKEMNPPDNIKDTKSDIIFFQRSVPGHDNKMQFESSSYEGYFLACEKERDLFKLILKKEDELGDRSIMFTVQNED , give the reported EC50 Fold Change (+BP/-BP), hIL-18 reporter assay.
Result: 1.45

Problem: For the binder shown here, IL-18 variant polypeptide M17 (ligand) YFPKLRSKLSVIRNLNDQVLFIDQGNRPLFEDMTDSDCRDNAPRTIFIISMYKLSTARGMAVTISVKCEKISTLSCENKIISFKEMNPPDGIKDTKSDIIFFQRSVPGHDNKMQFESSSYEGYFLACEKERDLFKLILKKEDELGDRSIMFTVQNED , give the reported EC50 Fold Change (+BP/-BP), hIL-18 reporter assay.
Result: 0.78

Provenance of the data: patent US20260092093A1
